Test system: MDA-MB-231 breast
Protocol: NCI tumour cell line growth inhibition, 48 h
TGI values by entry
Assay Endpoint: TGI

1) CC(C)(C)OC(=O)N1CCC2(C)CC(=O)CC=C12 (centres undefined)
> 100 µM
2) CC(=O)N1C(NN(C)C)CCN1c1ccccc1 (centres undefined)
> 10 µM
3) O=C(Cc1ccc(Cl)cc1)Nc1ccc2oc(-c3ccccc3)nc2c1
> 100 µM
4) COC(=O)C1CCCN1C(=O)[C@@H]1CCCN1C(=O)[C@H](Cc1c[nH]c2ccccc12)NC(=S)Nc1cc(C(F)(F)F)cc(C(F)(F)F)c1 (some centres undefined)
3.4 µM
5) COc1cc(-n2cc(-c3ccc(Cl)cc3)nc2SCc2cccc(C#N)c2)cc(OC)c1OC
> 100 µM
6) CC(C)(C)c1ccc(-n2c3nc(=O)n(-c4ccccc4CO)c(=O)c-3cc3ccccc32)cc1
> 100 µM
7) C=C(C)[C@@H]1CC[C@]2(C)[C@H](CC=C3[C@@H]4[C@@H](C)[C@H](C)CC[C@]4(C(N)=O)CC[C@]32C)[C@@]1(C)CCC#N
42.8 µM
8) Cc1ccc(C2SC(N)=Nc3c2c(C)nn3C(=O)c2ccccc2O)cc1 (centres undefined)
> 10 µM
9) Nc1ncnc2c1ncn2C1OC(CO)C(O)C(O)C1O (centres undefined)
> 100 µM
10) CN(C)CCCNc1c(C#N)[n+]([O-])c2cc(Cl)ccc2[n+]1[O-]
37.2 µM
11) CN1CCCOC(c2ccc([N+](=O)[O-])cc2)O1 (centres undefined)
> 100 µM
12) Cc1cc(NCc2cc(Nc3ccnc4cc(Cl)ccc34)ccc2F)nc(N2CCN(C)CC2)n1
3.74 µM
13) Cc1ccc(C(=O)Nc2ccc(CP(=O)(O)O)cc2CP(=O)(O)O)cc1NC(=O)c1cccc(NC(=O)Nc2cccc(C(=O)Nc3cc(C(=O)Nc4ccc(CP(=O)(O)O)cc4CP(=O)(O)O)ccc3C)c2)c1
> 100 µM
14) CN(Cc1cccc2ccccc12)Cc1cccc2ccccc12
64.1 µM
15) O=C1C=CC[C@H](/C=C/c2ccccc2)O1
32.4 µM
16) Cc1ccc(N2CCC3(CC2)OCCO3)cc1
> 100 µM
17) OC1[C@H](O)CN(OCc2ccccc2)C[C@@H]1O (some centres undefined)
> 100 µM
18) COc1cc(Cl)cc(-c2nn(-c3cccc(NC(=O)Nc4cc(C(F)(F)F)cc(C(F)(F)F)c4)c3)cc2-c2ccncc2)c1
2.26 µM
19) CN1C(=O)C(c2c[nH]c3ccccc23)N(C)C(=O)C1c1c[nH]c2ccccc12 (centres undefined)
> 100 µM

These measurements were taken from PubChem BioAssay (NCI).
